Source listed as the supplement of paper PMC8285479.

Collected normalised cell viability values appear next to each entry.
- Tested on: NCI-H1944;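 note: CTB read-out in 384-well plates, triplicate wells, NPI normalised per plate against 1 µM phenylarsine oxide (0) and 0.1% DMSO (1) controls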
- experiment-summary: normalised cell viability (NPI; 0 = phenylarsine oxide control, 1 = DMSO control) (fraction of DMSO control); NCI-H1944 is a non-small cell lung cancer line; higher = more viable cells (less compound toxicity)
- particulars: glucocorticoid arm: hydrocortisone 2.75 uM pre-treated 2 days and continued; compound 5 µM; 6 days
Structures can show the parent of a compound that is named as a salt. In all, about 1,900 compounds were measured (“normalised cell viability (NPI; 0 = phenylarsine oxide control, 1 = DMSO control)”: median about 1, lowest 2% from about 0.039 on). This is one part of a sample in which the lowest values are shown more often than they occur.
Write the number on its own, no unit after it.

molecule	normalised cell viability
CC#CCOC(=O)c1c(C)nc2sc3c(c2c1N)CCC(O)C3 (centres undefined)	1.03
O=C(CCCCCCC(=O)NO)NO [Suberoyl bis-hydroxamic acid]	0.868
CC(=O)O[C@@]12CO[C@@H]1C[C@H](O)[C@@]1(C)C(=O)[C@H](O)C3=C(C)[C@@H](OC(=O)[C@H](O)[C@@H](NC(=O)OC(C)(C)C)c4ccccc4)C[C@@](O)([C@@H](OC(=O)c4ccccc4)[C@H]21)C3(C)C	0.518
CCCCCCCCOc1ccccc1C(=O)Nc1ccc(C(=O)OCC[N+](C)(CC)CC)cc1 [Otilonium Bromide]	1.03
Cn1ccc2cc3c(cc21)CCN3C(=O)Nc1cccnc1	1.02
CO[C@H]1C(=O)[C@]2(C)[C@@H](OC)C[C@H]3OC[C@@]3(OC(C)=O)[C@H]2[C@H](OC(=O)c2ccccc2)[C@]2(O)C[C@H](OC(=O)[C@H](O)[C@@H](NC(=O)OC(C)(C)C)c3ccccc3)C(C)=C1C2(C)C	1.05

normalised cell viability of "CCCCOc1c(C(=O)c2c(F)cc(C)cc2F)c[nH]c2nncc1-2" , assay on NCI-H1944, is 1.02

normalised cell viability of C/C=C1\C(=O)C[C@H]2[C@@H]3CCC4=CC(=O)CC[C@]4(C)[C@H]3CC[C@]12C [(Z)-Guggulsterone] , assay on NCI-H1944, is 0.964

normalised cell viability of "Cc1ncc(-c2ccnc(Nc3ccc(S(C)(=O)=O)cc3)n2)n1C(C)C" , assay on NCI-H1944, is 0.319

normalised cell viability of "O=C(CCCCCCNC(=O)c1cnc(N(c2ccccc2)c2ccccc2)nc1)NO" , assay on NCI-H1944, is 0.934

normalised cell viability of "CC(=O)O[C@H]1C(=O)[C@@]2(C)[C@H]([C@H](OC(=O)c3ccccc3)[C@]3(O)C[C@H](OC(=O)[C@H](O)[C@@H](NC(=O)c4ccccc4)c4ccccc4)C(C)=C1C3(C)C)[C@]1(OC(C)=O)CO[C@@H]1C[C@@H]2O" , assay on NCI-H1944, is 1.02

normalised cell viability of CC(=O)[C@]1(O)Cc2c(O)c3c(c(O)c2[C@@H](O[C@H]2C[C@H](N)[C@H](O)[C@H](C)O2)C1)C(=O)c1ccccc1C3=O [Idarubicin hydrochloride; Idarubicin; 4-DMD HCl] , assay on NCI-H1944, is 1.03

normalised cell viability of "COc1cc2c(cc1C(F)(F)F)N(C(=O)Nc1cc(F)cc(-c3cccnc3)c1)CC2" , assay on NCI-H1944, is 0.903

normalised cell viability of "CC(C)[C@H](C(=O)Nc1ccc(C(=O)NO)cc1)c1ccccc1" , assay on NCI-H1944, is 0.00754
